Assay: Half life in mouse at 50 mg/kg, ip measured for 48 hrs by LC/MS/MS analysis
Format: ADME, organism-based
Conditions: in vivo
attribute_measured: half-life (h)
Give bare numbers, in h.

What the record says about COc1ccc(CN2C3CC2CN(c2ccc(-c4cc(OCCCC(=O)N5CCC(N6CCC(C#Cc7ccc(C(=O)NCC#Cc8ccc9c(c8)CN(C8CCC(=O)NC8=O)C9=O)cc7)CC6)CC5)cn5ncc(C#N)c45)cn2)C3)cn1 (stereo unspecified) : half-life is 7.3
